biological target: full-length TcPINK1 (1–570) (Tribolium castaneum, UniProt D6WMX4); construct: Kinetics of phosphorylation of PINKtide and indicated variants by full-length TcPINK1 (1–570); made in house; host or cells: E. coli BL21 Codon+; test: Peptide substrate kinase assay: phosphorylation of PINKtide and variants, [γ-32P] ATP, P81 paper; format: biochemical; settings: phosphorylation of the peptide substrate by full-length TcPINK1 (1–570); kinase 1 µM, 0.1 mM [γ-32P] ATP, 10 mM MgCl2, 50 mM Tris–HCl pH 7.5, 30 min, 30°C; nonlinear regression (GraphPad Prism); similar results in at least two experiments; n.d. = peptide phosphorylated poorly, kinetic values not determinable
Sequence (D6WMX4 whole entry): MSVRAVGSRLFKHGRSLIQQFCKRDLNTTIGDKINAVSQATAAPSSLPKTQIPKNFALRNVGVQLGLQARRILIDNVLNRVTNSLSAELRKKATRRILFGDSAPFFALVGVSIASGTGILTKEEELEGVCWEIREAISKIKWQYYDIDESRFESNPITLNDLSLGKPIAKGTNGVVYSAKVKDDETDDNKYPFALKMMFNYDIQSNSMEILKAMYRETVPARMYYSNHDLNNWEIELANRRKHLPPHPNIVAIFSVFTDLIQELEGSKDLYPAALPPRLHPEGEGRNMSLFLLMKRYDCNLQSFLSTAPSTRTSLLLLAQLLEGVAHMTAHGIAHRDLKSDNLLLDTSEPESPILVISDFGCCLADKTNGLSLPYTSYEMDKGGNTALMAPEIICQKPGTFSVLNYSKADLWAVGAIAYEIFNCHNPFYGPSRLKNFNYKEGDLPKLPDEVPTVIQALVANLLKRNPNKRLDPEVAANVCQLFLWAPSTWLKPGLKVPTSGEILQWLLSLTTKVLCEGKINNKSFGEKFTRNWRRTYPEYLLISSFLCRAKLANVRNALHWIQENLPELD
Binary call on Km with cut-off 200 µM: strictly below means MET, and equality or higher means NOT MET.

is_below(Km, 200 µM) for KKAIpYRRSPRRR [PINKtide variant at the −5 position] ?
NOT MET

is_below(Km, 200 µM) for KKKIpYRRSPRRR [PINKtide variant at the −5 position] ?
MET

is_below(Km, 200 µM) for KKLIpYRRSPRRR [PINKtide variant at the −5 position] ?
NOT MET

is_below(Km, 200 µM) for KKWIpTRRSPRRR [PINKtide variant at the −3 position] ?
NOT MET

is_below(Km, 200 µM) for KKWITRRSPRRR [PINKtide variant at the −3 position] ?
NOT MET

Others:
is_below(Km, 200 µM) for KKFIpYRRSPRRR [PINKtide variant at the −5 position] ?
MET

is_below(Km, 200 µM) for KKWIpYRRTPRRR [PINKtide variant, phosphorylated Ser changed to Thr] ?
NOT MET

is_below(Km, 200 µM) for KKWIFRRSPRRR [PINKtide variant at the −3 position] ?
MET
